Reported Drug uptake values follow for various compounds
Tested on: Stomach
protocol.details: Biodistribution in ddY mouse stomach at 0.2 to 0.4 uCi, iv after 2 mins measured per gram of organ
Assay type: ADME, organism-based
assay.conditions: in vivo
recorded.endpoint: Drug uptake (%ID)

• OCCOc1ccc(-c2cc3cc([125I])ccc3[nH]2)cc1 = 0.97
• CNc1ccc(-c2cc3cc([125I])ccc3[nH]2)cc1 = 0.52
• CN(C)c1ccc(-c2cc3cc([125I])ccc3[nH]2)cc1 = 4.03
• COc1ccc(-c2cc3cc([125I])ccc3[nH]2)cc1 = 0.72

====

Reported Drug uptake values follow for various compounds
Tested on: Intestine
protocol.details: Biodistribution in ddY mouse intestine at 0.2 to 0.4 uCi, iv after 10 mins
Format: ADME, organism-based
assay.conditions: in vivo
recorded.endpoint: Drug uptake (% ID/g)

* OCCOc1ccc(-c2cc3cc([125I])ccc3[nH]2)cc1 | 5.76
* CNc1ccc(-c2cc3cc([125I])ccc3[nH]2)cc1 | 3.57
* CN(C)c1ccc(-c2cc3cc([125I])ccc3[nH]2)cc1 | 3.09
* COc1ccc(-c2cc3cc([125I])ccc3[nH]2)cc1 | 6.85
